# procedure.details: Solubility of compound of the present invention in various solvents (saturated solution, HPLC)
# Assay type: physicochemical
# conditions.used: organic solvent or mixture, thermodynamic from solid; solvent: Methanol
reported.property: solubility at 35 min (mg/mL)
Give bare numbers, in mg/mL.

Look up solubility at 35 min: CC(C)C(NC(=O)Cn1c(-c2ccccc2)ncc(N)c1=O)C(=O)c1nnc(C(C)(C)C)o1 (racemic) 33.6

----------
# procedure.details: Solubility of compound of the present invention in various solvents (saturated solution, HPLC)
# Format: physicochemical
# conditions.used: aqueous buffer, thermodynamic from solid; Buffer pH 3.0 (Briton-Robinson, ionic strength 0.2); pH at dissolution 3.0
reported.property: solubility at 35 min

Look up solubility at 35 min: CC(C)C(NC(=O)Cn1c(-c2ccccc2)ncc(N)c1=O)C(=O)c1nnc(C(C)(C)C)o1 (racemic) [compound of the present invention] 122 µg/mL

----------
# procedure.details: Solubility of compound of the present invention in various solvents (saturated solution, HPLC)
# Type: physicochemical
# conditions.used: aqueous buffer, thermodynamic from solid; Buffer pH 5.0 (Briton-Robinson, ionic strength 0.2); pH at dissolution 5.0
reported.property: solubility at 35 min (µg/mL)
Answers are plain numbers, in µg/mL.

Look up solubility at 35 min: CC(C)C(NC(=O)Cn1c(-c2ccccc2)ncc(N)c1=O)C(=O)c1nnc(C(C)(C)C)o1 (racemic) [compound of the present invention] 104

----------
# procedure.details: Solubility of compound of the present invention in various solvents (saturated solution, HPLC)
# Format: physicochemical
# conditions.used: organic solvent or mixture, thermodynamic from solid; solvent: Octanol
reported.property: solubility at 35 min (µg/mL)
Numbers only, in µg/mL.

Look up solubility at 35 min: CC(C)C(NC(=O)Cn1c(-c2ccccc2)ncc(N)c1=O)C(=O)c1nnc(C(C)(C)C)o1 (racemic) 710

----------
# procedure.details: Solubility of compound of the present invention in various solvents (saturated solution, HPLC)
# Assay type: physicochemical
# conditions.used: pH 7.3, thermodynamic from solid; solvent: Purified water; pH at dissolution 7.3
reported.property: solubility at 35 min (µg/mL)
Numbers only, in µg/mL.

Look up solubility at 35 min: CC(C)C(NC(=O)Cn1c(-c2ccccc2)ncc(N)c1=O)C(=O)c1nnc(C(C)(C)C)o1 (racemic) 73

These measurements were taken from patent US20040023998A1.
